Recorded values, source patent US10183950B2.

target desc: full-length human PKCι (Homo sapiens, UniProt P41743)
Construct: Recombinant, full-length human PKCι expressed in Sf21 insect cells is also commercially available; purchased; host or cells: Sf21 insect cells
method summary: PKCι IC50 IMAP fluorescence polarisation assay, full-length enzyme
Type: biochemical
condition details: full length PKCi at 15 μM ATP; read-out: IC50 in IMAP assay against full length PKCi
Quick list: IC50 per entry.

compound | IC50
N[C@H](CNc1nc(-c2ccncc2)nc2c(C#Cc3ccccc3F)csc12)Cc1ccccc1 [compound 530] | 100 to 1000 nM
C#Cc1csc2c(N[C@@H]3CCNC3)nc(-c3ccncc3)nc12 [compound 559] | 100 to 1000 nM
Cc1sc2c(NCC(C)N)nc(-c3ccncc3)nc2c1Br (stereo in doubt) [compound 330] | 1000 to 10000 nM
Fc1cnc(Nc2ccccc2)cc1-c1nc(N[C@@H]2CCNC2)c2sccc2n1 [compound 579] | 1000 to 10000 nM
CNCC#Cc1csc2c(NC[C@@H](N)Cc3ccccc3)nc(-c3ccncc3)nc12 [compound 538] | 100 to 1000 nM
CC(C)(N)C#Cc1csc2c(NC[C@@H](N)Cc3ccccc3)nc(-c3ccncc3)nc12 [compound 516] | 1000 to 10000 nM
NC(CNc1nc(-c2ccncc2F)nc2c(-c3ccc(F)cc3)csc12)Cc1ccccc1 (stereo in doubt) [compound 430] | 1000 to 10000 nM
COc1ccc(C(C)(C)C)cc1-c1c(C)sc2c(NC[C@@H](N)Cc3ccccc3)nc(-c3ccncc3)nc12 [compound 461] | 10000 to 40000 nM
N[C@H](CNc1nc(-c2ccncc2)nc2c(C#CC3(O)CCCC3)csc12)Cc1ccccc1 [compound 528] | < 100 nM
N[C@H](CNc1nc(-c2ccncc2)nc2c(C#Cc3ccccn3)csc12)Cc1ccccc1 [compound 529] | 100 to 1000 nM

###

target desc: full-length human PKCι (Homo sapiens, UniProt P41743)
Construct: Recombinant, full-length human PKCι expressed in Sf21 insect cells is also commercially available; purchased; host or cells: Sf21 insect cells
Sequence (P41743 1-596): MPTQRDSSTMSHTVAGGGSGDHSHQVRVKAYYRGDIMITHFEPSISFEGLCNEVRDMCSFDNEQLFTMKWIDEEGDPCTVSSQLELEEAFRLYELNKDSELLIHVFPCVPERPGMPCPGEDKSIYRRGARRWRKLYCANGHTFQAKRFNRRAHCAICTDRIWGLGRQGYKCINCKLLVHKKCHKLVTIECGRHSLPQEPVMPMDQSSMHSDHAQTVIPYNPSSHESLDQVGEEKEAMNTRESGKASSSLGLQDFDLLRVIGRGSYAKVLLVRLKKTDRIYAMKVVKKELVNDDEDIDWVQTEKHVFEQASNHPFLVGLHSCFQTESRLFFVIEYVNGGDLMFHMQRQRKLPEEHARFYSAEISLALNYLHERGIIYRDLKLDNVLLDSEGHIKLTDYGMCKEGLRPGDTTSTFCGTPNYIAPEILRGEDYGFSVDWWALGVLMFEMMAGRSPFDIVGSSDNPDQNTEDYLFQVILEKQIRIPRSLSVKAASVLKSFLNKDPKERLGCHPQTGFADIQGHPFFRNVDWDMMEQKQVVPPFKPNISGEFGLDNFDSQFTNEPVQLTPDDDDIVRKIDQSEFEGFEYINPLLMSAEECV
method summary: PKCι IC50 IMAP fluorescence polarisation assay, full-length enzyme
Assay type: biochemical
condition details: full length PKCi at 15 μM ATP; read-out: IC50 in IMAP assay against full length PKCi
pIC50: −log10 of the molar value.
The reader will find reported pIC50 values listed item by item below.
observed property: pIC50

molecule | observed property | meas value
N[C@H](CNc1nc(-c2ccncc2F)nc2c(-c3cc[nH]n3)csc12)Cc1ccccc1 | pIC50 | > 7.00
Cc1sc2c(NC[C@@H](N)Cc3ccccc3)nc(-c3ccncc3)nc2c1-c1c(Cl)cccc1C(F)(F)F | pIC50 | 4.40 to 5.00
COc1cccc(C(=O)Nc2cc(-c3nc(N[C@@H]4CCNC4)c4sccc4n3)ccn2)c1 | pIC50 | 6.00 to 7.00
N[C@H](CNc1nc(-c2ccncc2)nc2c(C#CCF)csc12)Cc1ccccc1 | pIC50 | > 7.00
c1cnc(Nc2cc(-c3nc(N[C@@H]4CCNC4)c4sccc4n3)ccn2)cn1 | pIC50 | 6.00 to 7.00
N[C@H](CNc1nc(-c2ccncc2)nc2c(Nc3ccncn3)csc12)Cc1ccccc1 | pIC50 | 5.00 to 6.00
NC(CNc1nc(-c2ccncc2F)nc2c(-c3ccsc3)csc12)Cc1ccccc1 (stereo in doubt) | pIC50 | 5.00 to 6.00

###

target desc: full-length human PKCι (Homo sapiens)
Construct: Recombinant, full-length human PKCι expressed in Sf21 insect cells is also commercially available; purchased; host or cells: Sf21 insect cells
method summary: PKCι IC50 IMAP fluorescence polarisation assay, full-length enzyme
Format: biochemical
condition details: full length PKCi at 15 μM ATP; read-out: IC50 in IMAP assay against full length PKCi

molecule | IC50
COCC#Cc1csc2c(NC[C@@H](N)Cc3ccccc3)nc(-c3ccncc3)nc12 [compound 400] | < 0.1 µM
COc1cnccc1-c1c(C)sc2c(NC[C@@H](N)Cc3ccccc3)nc(-c3ccncc3)nc12 [compound 456] | 10 to 40 µM
NCc1ccc(-c2csc3c(NCC(N)Cc4ccccc4)nc(-c4ccncc4F)nc23)cc1 (stereo in doubt) [compound 427] | 1 to 10 µM
N[C@H](CNc1nc(-c2ccncc2)nc2c(-c3ccc(Br)cc3)csc12)Cc1ccccc1 [compound 326] | 1 to 10 µM
O=C(Nc1cc(-c2nc(N[C@@H]3CCNC3)c3sccc3n2)ccn1)c1cccs1 [compound 595] | 0.1 to 1 µM
COc1ncccc1-c1c(C)sc2c(NC[C@@H](N)Cc3ccccc3)nc(-c3ccncc3)nc12 [compound 465] | 10 to 40 µM
COc1ccc(C)cc1-c1c(C)sc2c(NC[C@@H](N)Cc3ccccc3)nc(-c3ccncc3)nc12 [compound 450] | 10 to 40 µM
NC(=O)CNc1nc(-c2ccncc2)nc2c(Br)csc12 [compound 338] | 10 to 40 µM
Cc1ccc(OC(C)C)c(-c2c(C)sc3c(NC[C@@H](N)Cc4ccccc4)nc(-c4ccncc4)nc23)c1 [compound 458] | 10 to 40 µM
CC[C@](C)(O)C#Cc1csc2c(NC[C@@H](N)Cc3ccccc3)nc(-c3ccncc3)nc12 [compound 523] | 0.1 to 1 µM
Cc1ccccc1-c1csc2c(NC[C@@H](N)Cc3ccccc3)nc(-c3ccncc3F)nc12 [compound 433] | 1 to 10 µM
Cc1sc2c(N[C@@H]3CCNC3)nc(-c3ccncc3)nc2c1C#CC(C)(C)O [compound 503] | 0.1 to 1 µM
Nc1csc2c(N[C@@H]3CCNC3)nc(-c3ccncc3)nc12 [compound 567] | 1 to 10 µM
O=C(Nc1cc(-c2nc(N[C@@H]3CCNC3)c3sccc3n2)ccn1)c1ccco1 [compound 574] | 1 to 10 µM
N[C@H](CNc1nc(-c2ccncc2)nc2c(-n3cccn3)csc12)Cc1ccccc1 [compound 561] | 0.1 to 1 µM
CC(O)C#Cc1csc2c(NC[C@@H](N)Cc3ccccc3)nc(-c3ccncc3)nc12 (some centres unmarked) [compound 513] | < 0.1 µM
N[C@H](CNc1nc(-c2ccncc2F)nc2c(-c3cc(C(F)(F)F)[nH]n3)csc12)Cc1ccccc1 [compound 421] | 1 to 10 µM
F[C@H]1CN(Cc2ccccc2)C[C@@H]1Nc1nc(-c2ccncc2)nc2ccsc12 [compound 315] | 10 to 40 µM
O=C(Nc1ccccc1)Nc1cc(-c2nc(N[C@@H]3CCNC3)c3sccc3n2)ccn1 [compound 575] | 0.1 to 1 µM
N[C@@H](CNc1nc(-c2ccncc2)nc2c(-c3ccc(Br)cc3)csc12)Cc1ccccc1 [compound 327] | 1 to 10 µM

###

target desc: kinase-domain human PKCι (Homo sapiens, UniProt P41743)
Construct: Recombinant, kinase-domain human PKCι is expressed and purified in-house; made in house
method summary: PKCι IC50 IMAP fluorescence polarisation assay, kinase-domain enzyme
Type: biochemical
condition details: kinase domain PKCi at 2 μM ATP; read-out: IC50 in IMAP assay against kinase domain PKCi
pIC50: −log10 of the molar value.

compound structure string | target desc | pIC50
Cc1cc(C)c2c(n1)sc1c(NC[C@H](C)N)nc(-c3ccncc3)nc12 | kinase-domain human PKCι (Homo sapiens, UniProt P41743) | 6.00 to 7.00
Cc1cc(C)c2c(n1)sc1c(NC[C@@H](C)N)nc(-c3ccncc3)nc12 | kinase-domain human PKCι (Homo sapiens, UniProt P41743) | 5.00 to 6.00
CC(C)(C)c1ccc(-c2cc3nc(-c4ccncc4)nc(N4CCCNCC4)c3s2)cc1 | kinase-domain human PKCι (Homo sapiens, UniProt P41743) | 4.40 to 5.00
C[C@H](N)CNc1nc(-c2ccncc2)nc2cc(-c3ccccc3)sc12 | kinase-domain human PKCι (Homo sapiens, UniProt P41743) | 4.40 to 5.00
C[C@H](N)CNc1nc(-c2ccncc2)nc2c1sc1ncccc12 | kinase-domain human PKCι (Homo sapiens, UniProt P41743) | 5.00 to 6.00
C[C@@H](N)CNc1nc(-c2ccncc2)nc2c1sc1ncccc12 | kinase-domain human PKCι (Homo sapiens, UniProt P41743) | 4.40 to 5.00
CC(C)(C)c1cc2nc(-c3ccncc3)nc(NCCN)c2s1 | kinase-domain human PKCι (Homo sapiens, UniProt P41743) | 4.40 to 5.00
C[C@@H](N)CNc1nc(-c2ccncc2)nc2cc(-c3ccccc3)sc12 | kinase-domain human PKCι (Homo sapiens, UniProt P41743) | 4.40 to 5.00
Clc1cccc2sc3c(OC[C@@H]4CCCN4)nc(-c4ccncc4)nc3c12 | kinase-domain human PKCι (Homo sapiens, UniProt P41743) | 5.00 to 6.00
Clc1cccc2sc3c(N[C@@H]4CCNC4)nc(-c4ccncc4)nc3c12 | kinase-domain human PKCι (Homo sapiens, UniProt P41743) | 5.00 to 6.00
N[C@@H](COc1nc(-c2ccncc2)nc2c1sc1cccc(Cl)c12)Cc1ccccc1 | kinase-domain human PKCι (Homo sapiens, UniProt P41743) | 4.40 to 5.00
N[C@H](CNc1nc(-c2ccncc2)nc2c1sc1cccc(Cl)c12)Cc1ccccc1 | kinase-domain human PKCι (Homo sapiens, UniProt P41743) | 6.00 to 7.00
c1cnc2sc3c(N4CCCNCC4)nc(-c4ccncc4)nc3c2c1 | kinase-domain human PKCι (Homo sapiens, UniProt P41743) | 5.00 to 6.00
Clc1cccc2sc3c(N4CCNCC4)nc(-c4ccncc4)nc3c12 | kinase-domain human PKCι (Homo sapiens, UniProt P41743) | 6.00 to 7.00
Cc1csc2c(OC[C@@H](N)Cc3ccccc3)nc(-c3ccncc3)nc12 | kinase-domain human PKCι (Homo sapiens, UniProt P41743) | 4.40 to 5.00
CC(C)(C)c1ccc(-c2cc3nc(-c4ccncc4)nc(NCCN)c3s2)cc1 | kinase-domain human PKCι (Homo sapiens, UniProt P41743) | 4.40 to 5.00
C[C@H](N)CNc1nc(-c2ccncc2)nc2cc(-c3ccc(C(C)(C)C)cc3)sc12 | kinase-domain human PKCι (Homo sapiens, UniProt P41743) | 4.40 to 5.00
Cc1csc2c(N[C@H]3CCNC3)nc(-c3ccncc3)nc12 | kinase-domain human PKCι (Homo sapiens, UniProt P41743) | 5.00 to 6.00
Cc1csc2c(OC[C@H]3CCCN3)nc(-c3ccncc3)nc12 | kinase-domain human PKCι (Homo sapiens, UniProt P41743) | 4.40 to 5.00
Cc1csc2c(N(C)CCN)nc(-c3ccncc3)nc12 | kinase-domain human PKCι (Homo sapiens, UniProt P41743) | 5.00 to 6.00
CN(CCN)c1nc(-c2ccncc2)nc2c1sc1cccc(Cl)c12 | kinase-domain human PKCι (Homo sapiens, UniProt P41743) | 5.00 to 6.00
